Answer each item with its documented pIC50.
# Target Desc: COX-2 (Mus musculus (Mouse), UniProt Q05769)
# Sequence (Q05769 18-604): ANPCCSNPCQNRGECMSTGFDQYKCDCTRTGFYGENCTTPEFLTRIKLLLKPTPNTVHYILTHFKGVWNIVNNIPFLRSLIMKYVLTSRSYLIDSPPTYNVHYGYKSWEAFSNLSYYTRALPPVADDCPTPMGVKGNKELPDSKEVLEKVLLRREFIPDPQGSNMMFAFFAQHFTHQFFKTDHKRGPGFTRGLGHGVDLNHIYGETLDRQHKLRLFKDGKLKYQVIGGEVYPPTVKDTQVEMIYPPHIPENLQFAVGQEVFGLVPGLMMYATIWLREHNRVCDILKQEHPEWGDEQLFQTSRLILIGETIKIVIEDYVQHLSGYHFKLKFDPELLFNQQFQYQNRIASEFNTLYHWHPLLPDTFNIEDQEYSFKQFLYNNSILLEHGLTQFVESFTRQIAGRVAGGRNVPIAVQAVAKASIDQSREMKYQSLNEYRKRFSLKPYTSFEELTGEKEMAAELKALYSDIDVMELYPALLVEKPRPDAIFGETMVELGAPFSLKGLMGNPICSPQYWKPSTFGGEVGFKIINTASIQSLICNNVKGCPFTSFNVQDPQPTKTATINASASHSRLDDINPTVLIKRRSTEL
# Experiment: Evaluation of COX-2 activity: PGE2 production in LPS-stimulated J774 cells
# Condition Summary: J774 cells stimulated 24 hours with LPS 10 μg/mL; PGE2 by radio-immunological assay; read-out: Cyclooxygenase inhibition COX-2 IC50
# Protocol: The murine monocyte/macrophage cell line J774 is grown in Dulbecco's modified Eagle's medium (DMEM), enriched with glutamine (2 mM), HEPES (25 mM), penicillin (100 u/mL), streptomycin (100 μg/mL), 10% of fetal bovine serum (FBS) and 1.2% of sodium pyruvate. […] In each group of experiments, wells were used in triplicate for the different treatment conditions. […] The data were evaluated using the sigmoidal dose-response equation (variable slope) (GraphPad software). […]
# pIC50 = -log10(concentration in molar units)

Item Cc1c(CC(=O)OCCO)cc(-c2ccc(S(C)(=O)=O)cc2)n1-c1ccc(F)cc1 [Example 2-II] has what recorded pIC50?
7.05

Item Cc1c(C(N)C(=O)OCCCO[N+](=O)[O-])cc(-c2ccc(S(C)(=O)=O)cc2)n1-c1ccc(F)cc1 (racemic) [Example 18] has what recorded pIC50?
6.09

Item Cc1c(CCOCCO[N+](=O)[O-])cc(-c2ccc(S(C)(=O)=O)cc2)n1-c1ccc(F)c(F)c1 [Example 39] has what recorded pIC50?
6.04

Item Cc1c(C(N)C(=O)OCCCCO[N+](=O)[O-])cc(-c2ccc(S(C)(=O)=O)cc2)n1-c1ccc(F)cc1 (racemic) [Example 20] has what recorded pIC50?
6.00

Item CSc1ccc(-n2c(-c3ccc(S(C)(=O)=O)cc3)cc(CC(=O)OCCCCO[N+](=O)[O-])c2C)cc1 [Example 14] has what recorded pIC50?
6.66

Item Cc1c(CC(=O)OCCO)cc(-c2ccc(S(C)(=O)=O)cc2)n1-c1cccc(F)c1 [Example 3-II] has what recorded pIC50?
7.07

Item Cc1c(CC(=O)OCCCCO)cc(-c2ccc(S(C)(=O)=O)cc2)n1-c1cccc(F)c1 [Example 12-II] has what recorded pIC50?
6.96

Ref: patent US9162979B2
